Source: ChEMBL document CHEMBL1201862

Tested on: A498
Test: NCI tumour cell line growth inhibition, 48 h
Activity calls are given as the source filed them. No stated cut-off is given here; in the data, active = GI50 up to about 1.1 µM and inactive = higher.
parameter measured: GI50

{"compound": "COC(=O)C1=C(c2cc(OC)c(OC)c(OC)c2)OC(c2ccc3c(c2)OCO3)C1 (stereo not drawn)", "tested system": "A498", "GI50": "8.95 µM (inactive)"}
{"compound": "O=S(=O)(Cc1cnc(O)nc1O)Cc1cnc(O)nc1O", "tested system": "A498", "GI50": "> 100 µM (inactive)"}

Could you now consider this next compound?
What does the data say about its GI50? Entry: `O=C(O)c1ccccc1/C=C1/Cc2ccc3c(c2C1=O)CCC3`
38.3 µM (inactive)
